# inhibition of IKZF1 HTRF signal per entry
molecular target: IKZF1 (dCK*-IKZF1 fusion in HEK293FT); assay: inhibition of IKZF1 HTRF signal (DMSO = 0%, pomalidomide 10 uM = 100%); higher = lower IKZF1 protein level; conditions: compound concentration: 5 uM, overnight (~20 h)
Where a name gives a salt, the structure may show the parent alone.
Just the number in %, nothing appended.

Some entries whose results are on file:
{"Compound": "CC(C)(C)c1ccc(/C=C/C(=O)Nc2ccc3c(c2)OCCO3)cc1", "inhibition of IKZF1 HTRF signal (%)": -32}
{"Compound": "OCCN1CCN(CCCN2c3ccccc3Sc3ccc(C(F)(F)F)cc32)CC1 [Fluphenazine HCl]", "inhibition of IKZF1 HTRF signal (%)": -52.5}
{"Compound": "CN(C)C(=O)C(CCN1CCC(O)(c2ccc(Cl)cc2)CC1)(c1ccccc1)c1ccccc1", "inhibition of IKZF1 HTRF signal (%)": -14.4}

Req: Looking for the measured inhibition of IKZF1 HTRF signal of OC1=C(C[C@]([C@](CO)=O)(O)C[C@@H]4O[C@@]5([H])C[C@H](N)[C@H](O)[C@H](C)O5)C4=C(O)C3=C1C(C2=CC=CC(OC)=C2C3=O)=O , can you help?
Resp: -9.64

Req: Looking for the measured inhibition of IKZF1 HTRF signal of COc1cc(/C=C2\CCC/C(=C\c3ccc(O)c(OC)c3)C2=O)ccc1O , can you help?
Resp: -30.9

Req: Looking for the measured inhibition of IKZF1 HTRF signal of C[C@H]1[C@H](OC(=O)CCC(=O)O)O[C@@H]2O[C@@]3(C)CC[C@H]4[C@H](C)CC[C@@H]1[C@@]24OO3 , can you help?
Resp: 37.4

Req: Looking for the measured inhibition of IKZF1 HTRF signal of CCNC(=O)Nc1ccc(-c2nc3c(c(N4CCOC[C@@H]4C)n2)CCN(C2COC2)C3)cc1 , can you help?
Resp: 68.5

Req: Looking for the measured inhibition of IKZF1 HTRF signal of COc1ccc(NS(=O)(=O)c2ccc(N)cc2)nn1 , can you help?
Resp: -33.3

---

system: HEK293FT dCK*-IKZF1; test: relative growth recovery (pomalidomide 10 uM = 100%, DMSO = 0%); higher = more growth rescue (IKZF1 fusion degradation); details: compound concentration: 5 uM; AraC concentration: 0.3 uM; overnight pretreatment + 4 days AraC
Structures can show the parent of a compound that is named as a salt.
# relative growth recovery per entry
Just the number in %, nothing appended.

Some entries whose results are on file:
{"Compound": "CC(C)(C)CC(C)(C)c1ccc(O)c(Cc2ccc(Cl)cc2Cl)c1", "Target Under Test": "HEK293FT dCK*-IKZF1", "relative growth recovery [%]": -7.76}
{"Compound": "Cc1ccnc(NS(=O)(=O)c2ccc(N)cc2)n1", "Target Under Test": "HEK293FT dCK*-IKZF1", "relative growth recovery [%]": 1.5}
{"Compound": "CN1CCC[C@@H]1CCO[C@](C)(c1ccccc1)c1ccc(Cl)cc1 [Clemastine Fumarate]", "Target Under Test": "HEK293FT dCK*-IKZF1", "relative growth recovery [%]": 2.26}

Req: Reported relative growth recovery for HEK293FT dCK*-IKZF1, given CO[C@@]12[C@@H]3NC3CN1C1=C(C(=O)C(N)=C(C)C1=O)[C@@H]2COC(N)=O (some centres undefined) ?
Resp: -12.9

Req: Reported relative growth recovery for HEK293FT dCK*-IKZF1, given CNCCC(Oc1ccc(C(F)(F)F)cc1)c1ccccc1 (centres undefined) [Fluoxetine HCl] ?
Resp: 1.15

Req: Reported relative growth recovery for HEK293FT dCK*-IKZF1, given CCN(CC)CCOc1ccccc1C(=O)CCc1ccccc1 ?
Resp: -1.08

Req: Reported relative growth recovery for HEK293FT dCK*-IKZF1, given Clc1ccc(CSC(Cn2ccnc2)c2ccc(Cl)cc2Cl)cc1 (centres undefined) ?
Resp: -1.39

Req: Reported relative growth recovery for HEK293FT dCK*-IKZF1, given NC(=O)c1ccc[n+]([C@@H]2O[C@H](COP(=O)(O)OP(=O)(O)OC[C@H]3O[C@@H](n4cnc5c(N)ncnc54)[C@H](O)[C@@H]3O)[C@@H](O)[C@H]2O)c1 ?
Resp: 1.08

Req: Reported relative growth recovery for HEK293FT dCK*-IKZF1, given CC(=O)Nc1cccc(Nc2ncnc(N3CCC(OCc4ccc(OC(F)(F)F)cc4)CC3)n2)c1C ?
Resp: 1.55

---

# inhibition of IKZF1 HTRF signal per entry
target: IKZF1 (dCK*-IKZF1 fusion in HEK293FT) (UniProt Q13422); assay: inhibition of IKZF1 HTRF signal (DMSO = 0%, pomalidomide 10 uM = 100%); higher = lower IKZF1 protein level; details: compound concentration: 5 uM, overnight (~20 h)
Sequence (Q13422 whole entry, looked up, the tested form may be a part): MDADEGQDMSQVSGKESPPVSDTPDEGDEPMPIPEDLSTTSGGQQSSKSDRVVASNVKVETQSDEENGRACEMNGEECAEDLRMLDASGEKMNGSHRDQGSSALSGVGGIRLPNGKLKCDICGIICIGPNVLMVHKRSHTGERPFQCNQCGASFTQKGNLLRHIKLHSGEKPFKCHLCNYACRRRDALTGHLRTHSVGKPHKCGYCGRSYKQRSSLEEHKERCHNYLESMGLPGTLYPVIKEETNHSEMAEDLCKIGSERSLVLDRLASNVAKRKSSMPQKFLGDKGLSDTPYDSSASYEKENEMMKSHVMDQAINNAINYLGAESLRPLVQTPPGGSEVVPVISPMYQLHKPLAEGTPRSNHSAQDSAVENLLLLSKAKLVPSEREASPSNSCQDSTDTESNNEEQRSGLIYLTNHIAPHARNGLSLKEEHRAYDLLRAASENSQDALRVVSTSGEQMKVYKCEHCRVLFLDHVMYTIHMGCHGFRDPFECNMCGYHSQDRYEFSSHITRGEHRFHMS
Just the number in %, nothing appended.

Some entries whose results are on file:
{"Compound": "O=C1Nc2cc(Br)ccc2/C1=C1/Nc2ccccc2/C1=N\\O", "Unit Of Measure": "%", "inhibition of IKZF1 HTRF signal": -34.6}
{"Compound": "COc1cccc2c1C(=O)c1c(O)c3c(c(O)c1C2=O)C[C@@](O)(/C(CO)=N/NC(=O)CCCCCN1C(=O)C=CC1=O)C[C@@H]3O[C@H]1C[C@H](N)[C@H](O)[C@H](C)O1", "Unit Of Measure": "%", "inhibition of IKZF1 HTRF signal": -9}
{"Compound": "Clc1ccc(C(Cn2ccnc2)OCc2csc3c(Cl)cccc23)c(Cl)c1 (stereo not drawn) [Sertaconazole nitrate]", "Unit Of Measure": "%", "inhibition of IKZF1 HTRF signal": 20}
{"Compound": "Nc1nc(=O)n([C@H]2C[C@H](O)[C@@H](CO)O2)cc1F", "Unit Of Measure": "%", "inhibition of IKZF1 HTRF signal": -4.07}
{"Compound": "NC(=O)N/N=C/c1ccc(Oc2ccc(F)cc2)cc1", "Unit Of Measure": "%", "inhibition of IKZF1 HTRF signal": -35}

Req: Looking for the measured inhibition of IKZF1 HTRF signal of COc1ccc(NS(=O)(=O)c2ccc(N=Nc3ccc(O)c(C(=O)O)c3)cc2)nn1 , can you help?
Resp: -2.92

Req: Looking for the measured inhibition of IKZF1 HTRF signal of CCN(CC)CCOc1ccc2c(c1)C(=O)c1cc(OCCN(CC)CC)ccc1-2 , can you help?
Resp: -2.01

Req: Looking for the measured inhibition of IKZF1 HTRF signal of CC(=O)c1ccc(S(=O)(=O)NC(=O)NC2CCCCC2)cc1 , can you help?
Resp: -56.1

---

# relative growth in counter assay per entry
tested on: HEK293FT dCK*-only; experiment: relative growth in counter assay (no AraC = 100%, AraC + DMSO = 0%); higher = more growth rescue independent of IKZF1; settings: compound concentration: 5 uM; AraC concentration: 0.3 uM; overnight pretreatment + 4 days AraC
Structures can show the parent of a compound that is named as a salt.
Just the number in %, nothing appended.

{"Molecule": "O=C(Nc1ccc(S(=O)(=O)Nc2nccs2)cc1)C(c1ccccc1)c1ccccc1", "Unit Of Measure": "%", "relative growth in counter assay": -2.35}
{"Molecule": "C[C@@H]1CC(=O)NN=C1c1ccc(NN=C(C#N)C#N)cc1", "Unit Of Measure": "%", "relative growth in counter assay": 11.2}
{"Molecule": "Cn1c(=O)n(-c2ccc(C(C)(C)C#N)cc2)c2c3cc(-c4cnc5ccccc5c4)ccc3ncc21", "Unit Of Measure": "%", "relative growth in counter assay": -20.5}
{"Molecule": "Cc1cccc(C)c1NC(=O)C(C)N (stereo not drawn) [Tocainide]", "Unit Of Measure": "%", "relative growth in counter assay": -12.9}
{"Molecule": "Cc1cccc(C)c1NC(=O)CN1CCN(CCCC(c2ccc(F)cc2)c2ccc(F)cc2)CC1", "Unit Of Measure": "%", "relative growth in counter assay": 35.6}

Req: Looking for the measured relative growth in counter assay of CC(C)(C)c1cc(O)c(C(C)(C)C)cc1O , can you help?
Resp: -0.82

Req: Looking for the measured relative growth in counter assay of Nc1ccc(/N=N/c2ccccc2)c(N)n1 , can you help?
Resp: -3.22

Req: Looking for the measured relative growth in counter assay of C=CCNc1c(O)cc2c(O)c1C[C@@H](C)C[C@H](OC)[C@H](O)[C@@H](C)/C=C(\C)[C@H](OC(N)=O)[C@@H](OC)/C=C\C=C(/C)C(=O)N2 [Retaspimycin (Hydrochloride)] , can you help?
Resp: -34.5

---

tested on: HEK293FT dCK*-IKZF1; experiment: relative growth recovery (pomalidomide 10 uM = 100%, DMSO = 0%); higher = more growth rescue (IKZF1 fusion degradation); details: compound concentration: 5 uM; AraC concentration: 0.3 uM; overnight pretreatment + 4 days AraC
Counter-ions that a name gives are not always drawn.
# relative growth recovery per entry
Field note: include the unit after the figure.

Req: Reported relative growth recovery for HEK293FT dCK*-IKZF1, given CC(=O)c1ccc(S(=O)(=O)NC(=O)NC2CCCCC2)cc1 ?
Resp: 1.03%

Req: Reported relative growth recovery for HEK293FT dCK*-IKZF1, given COc1cccc2c(O)c3c(O)c4c(c(O)c3c(O)c12)=C(O[C@H]1C[C@H](N)[C@H](O)[C@H](C)O1)C[C@](O)(C(C)=O)C=4 [Daunorubicin HCl] ?
Resp: -13.9%

Req: Reported relative growth recovery for HEK293FT dCK*-IKZF1, given CC(=O)[C@]1(O)Cc2c(O)c3c(c(O)c2[C@@H](O[C@H]2C[C@H](N)[C@H](O)[C@H](C)O2)C1)C(=O)c1ccccc1C3=O [Idarubicin HCl] ?
Resp: -13%

Req: Reported relative growth recovery for HEK293FT dCK*-IKZF1, given COC(=O)Nc1ccc(-c2nc(N3CCOCC3)c3cnn(C4CCN(Cc5cccnc5)CC4)c3n2)cc1 ?
Resp: -12.9%
